# test.target: T1, Human Semaphorin3A-Sema Domain, TPP-19068 (human, UniProt Q14563 21-569)
# T1 construct: produced inhouse in HEK293-6E; also called human monovalent Sema3A domain
# T1 sequence: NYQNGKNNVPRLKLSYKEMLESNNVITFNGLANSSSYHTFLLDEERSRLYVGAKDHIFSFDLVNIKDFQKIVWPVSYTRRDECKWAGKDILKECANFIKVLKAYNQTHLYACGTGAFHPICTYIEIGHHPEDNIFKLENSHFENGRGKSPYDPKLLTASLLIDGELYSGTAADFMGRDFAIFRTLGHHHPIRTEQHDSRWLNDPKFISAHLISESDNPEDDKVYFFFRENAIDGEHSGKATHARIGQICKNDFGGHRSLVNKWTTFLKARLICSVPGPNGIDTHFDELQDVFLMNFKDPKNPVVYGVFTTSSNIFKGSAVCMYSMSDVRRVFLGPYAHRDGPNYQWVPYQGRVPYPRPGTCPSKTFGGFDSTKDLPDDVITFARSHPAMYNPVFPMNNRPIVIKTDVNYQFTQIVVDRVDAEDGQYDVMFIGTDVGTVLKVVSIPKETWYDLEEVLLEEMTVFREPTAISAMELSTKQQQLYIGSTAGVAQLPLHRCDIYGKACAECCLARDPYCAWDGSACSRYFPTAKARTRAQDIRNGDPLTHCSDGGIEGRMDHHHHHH
# test.protocol: SPR, captured antibody, Sema3A domain analyte
experimental.readout: Kd (nM)
Give bare numbers, in nM.

Query :: Entry TPP-25224 (antibody, human IgG1, lambda, V domains shown) VH: EVQLLESGGGLVQPGGSLRLSCAASGFTFDSYEMNWVRQAPGKGLEWVSGISWNSGWIDYADSVKGRFTISRDNSKNTLYLQMNSLRAEDTAVYYCARSGYSSSWFDPDFDYWGQGTLVTVSS VL: QSVLTQPPSVSGAPGQRVTISCTGSSSNIGAGYDVHWYQQLPGTAPKLLIYGNSNRPSGVPDRFSGSKSGTSASLAITGLQAEDEADYYCQSYAGINPYVVFGGGTKLTVLG has what Kd?
Result :: 0.049

Then there is this binder:
Query :: I am curious: what Kd value has been reported for TPP-26111 (antibody, human IgG1, lambda, V domains shown) VH: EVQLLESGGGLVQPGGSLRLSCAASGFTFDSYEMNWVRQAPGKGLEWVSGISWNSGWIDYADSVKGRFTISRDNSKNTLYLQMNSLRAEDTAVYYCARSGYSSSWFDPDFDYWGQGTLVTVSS VL: QSVLTQPPSVSGAPGQRVTISCTGSSSNIGAGYDVHWYQQLPGTAPKLLIYGNSNRPSGVPDRFSGSKSGTSASLAITGLQAEDEADYYCSSYAGPNPYVVFGGGTKLTVLG ?
Result :: 0.052
